Entries and their melting point

COMPOUND: O=C(O)CCc1cn(Cc2cccc(C(=O)NCc3ccc(C(F)(F)F)cc3)c2)nc1-c1ccccc1
melting point: 165 to 166 °C
//
COMPOUND: CCOC(=O)c1cc(C)c(Cl)nc1Nc1ccccc1F
melting point: 122 to 126 °C
//
COMPOUND: CC(=O)NC1(c2ccccc2)CC1
melting point: 94 to 95 °C
//
COMPOUND: O=CC=C(c1ccccc1F)c1ccccc1F
melting point: 75 to 77 °C
//
COMPOUND: O=C(C=Cc1ccc[nH]1)c1ccccc1Br
melting point: 76 to 78 °C
//
COMPOUND: COC(COc1cccc2c(OCC(OC)OC)cccc12)OC
melting point: 117 °C
//
COMPOUND: COc1ccccc1NC(=O)Nc1nc(Nc2ccccc2-c2ccccc2)nc(N(CCC(=O)O)Cc2ccccc2C(F)(F)F)n1
melting point: 216 to 219 °C
//
COMPOUND: CCCCN1C(=O)c2cnc(-c3ccccc3)nc2N(C(=O)CCl)c2ccccc21
melting point: 139 to 140 °C
//
COMPOUND: Cn1cc(-c2ccc(Cl)cc2)c(=O)c(-c2cccc(Cl)c2)c1
melting point: 170 to 172 °C
//
COMPOUND: O=C1OCCN1CCN1CCN(C2Cc3ccc(Cl)cc3Sc3cc(F)ccc32)CC1 (stereo not given)
melting point: 168 to 170 °C
//
COMPOUND: O=C1CCCc2snc(Cl)c21
melting point: 84 to 85 °C
//
COMPOUND: Cc1cccc2nc3n(c(=O)c12)-c1ccccc1C3=O
melting point: 304 to 307 °C
//
COMPOUND: CNC(=O)c1ccc2c(c1)OC(c1ccccc1)(c1ccccc1)O2
melting point: 144 to 145 °C
//
COMPOUND: CC(=O)N(C)C1Cc2ccc(C(=O)Cn3cnc4cc(-c5ccc(Cl)cc5)sc4c3=O)cc2C1 (stereo not given)
melting point: 276 °C
//
COMPOUND: Cc1cccc(-c2sc(N)nc2-c2ccnc(-c3ccc(CN4CCCC4)cc3)c2)n1
melting point: 200 °C
//
COMPOUND: Cc1cc(C(=O)O)ccc1OCCNC(=O)C1Cc2ccccc2N1S(=O)(=O)c1ccc(-c2ccc(F)cc2)cc1 (stereo not given)
melting point: 112 to 118 °C
//
COMPOUND: Cc1nc(-n2cc(CCc3ccccc3)nn2)sc1C(=O)NCc1ccccc1
melting point: 167 to 170 °C
//
COMPOUND: NS(=O)(=O)Oc1cccc(Br)c1
melting point: 90 to 91.5 °C
//
COMPOUND: NS(=O)(=O)c1cc2c(Cl)csc2s1
melting point: 158 to 160 °C
//
COMPOUND: CCn1ncc(C(=O)c2ccc(S(C)(=O)=O)c(N3CCOC(=O)C3)c2Cl)c1O
melting point: 198 to 202 °C

* * *

In this section, each of the compounds is paired with its reported melting point.

COMPOUND: CCCc1c2c(nn1-c1ccccc1)c(=O)[nH]c1ccccc12
melting point: > 300 °C

COMPOUND: CCONC(=O)c1cc(NC(C)=C2C(=O)OC(=O)C(C(C)=O)=C2O)cc(C(=O)NOCC)c1
melting point: 234 to 235 °C

COMPOUND: O=[N+]([O-])C=Cc1ccc(O)c(Br)c1
melting point: 132 to 134 °C

COMPOUND: Cc1ccc2c(c1)c1c(n2C(=O)c2ccc(Cl)cc2)CCC(C(=O)O)C1 (stereo not given)
melting point: 211 to 214 °C

COMPOUND: CCc1ccc2c(c1)OC1(O)c3ccccc3C(=O)C21O (stereo not given)
melting point: 168 to 169 °C

COMPOUND: COc1ccc(C(=O)Nc2ccccc2)cc1NCc1cc(C)cc(C)c1
melting point: 168 to 170 °C

COMPOUND: CS(=O)(=O)N1CCN(c2n[nH]c(-c3ccc(Cl)cc3)c2-c2ccncc2)CC1
melting point: 245 to 248 °C

COMPOUND: Cc1ccnc(-n2cc(C#N)ccc2=O)c1
melting point: 166 to 168 °C

COMPOUND: O=C(O)c1csnc1-c1ccc(Cl)cc1
melting point: 182 °C

COMPOUND: O=C(O)c1cc(OCc2ccc(Cl)cc2)c(C(=O)c2ccccc2)c([N+](=O)[O-])c1
melting point: 253 to 254 °C

COMPOUND: CSCCC(=O)Nc1sc(-c2cccnc2)nc1SC
melting point: 72 to 74 °C

COMPOUND: NC(=O)c1ccc(O)c(I)c1
melting point: 90 to 95 °C

COMPOUND: Fc1ccc(-c2ncn(C3CCNCC3)c2-c2cccnc2Oc2ccc(OCc3ccccc3)cc2)cc1
melting point: 178 to 179 °C

COMPOUND: CN(C)CCS(=O)(=O)NC(=O)CCn1c2ccc(O)cc2c2c3c(c(-c4ccccc4Cl)cc21)C(=O)NC3=O
melting point: 229 to 233 °C

COMPOUND: Cn1c(=O)n(C)c2cc3c(N4CCN(C(=O)Nc5ccc([N+](=O)[O-])cc5)CC4)ncnc3cc21
melting point: 299 to 300 °C

COMPOUND: COc1cc(OC)c2c(=O)[nH]c(-c3ccc(CN4CCOCC4)cc3)nc2c1
melting point: 206 to 208 °C

COMPOUND: O=C(CCc1ccc(OCCS(=O)(=O)CCOC(c2ccc(Cl)cc2)c2ccc(Cl)cc2)cc1)C(F)(F)F
melting point: 98 to 100 °C

COMPOUND: CC(C)(C)c1cc(NS(=O)(=O)c2ccc(N3CCNC3=O)cc2)cc(C(C)(C)C)c1
melting point: 276 to 278 °C

COMPOUND: COc1ccc(C2CNC(=O)O2)cc1OC (stereo not given)
melting point: 114 to 117 °C

COMPOUND: CC(C)c1cc(C(C)C)c2c(c1)C1(O)C(=O)c3ccccc3C1(O)O2 (stereo not given)
melting point: 205 to 206 °C
